Recorded GI50 values for a group of molecules are listed next.
- Tested on: RXF 393
- measurement.notes: Growth inhibition of human RXF 393 cells incubated for 48 hrs by sulforhodamine B assay
- Type: functional
Please format your answer as a value with the unit trailing.

Q: Retrieve GI50 on RXF 393; query `COc1cc2nc(-c3ccc(Cl)cc3)cc(OCCCN3CCC(O)CC3)c2cc1OC`
A: 1220 nM

Q: Please report the measured GI50 for `COc1cc2nc(-c3ccc(Cl)cc3)cc(OCCCN3CCCCC3)c2cc1OC` tested on RXF 393.
A: 1080 nM

New cases:
Q: Lab note: RXF 393 assay, enter GI50 for `COc1cc2nc(-c3ccc(Cl)cc3)cc(OCCCN3CCCC3)c2cc1OC` here
A: 1170 nM

Q: Give reported GI50 for `COc1cc2nc(-c3ccc(C(F)(F)F)cc3)cc(OCCCN3CCCC3)c2cc1OC` (RXF 393)
A: 1130 nM

Q: Fill: GI50 (RXF 393) for this molecule `COc1cc2nc(-c3ccc(C(F)(F)F)cc3)cc(OCCCN3CCOCC3)c2cc1OC`
A: 706 nM
